For each of the compounds below, state its IC50.
- Target entity: Epidermal growth factor receptor (Homo sapiens, UniProt P00533, C797S/L858R/T790M)
- Sequence (P00533 25-1210 T790M/C797S/L858R limits assumed): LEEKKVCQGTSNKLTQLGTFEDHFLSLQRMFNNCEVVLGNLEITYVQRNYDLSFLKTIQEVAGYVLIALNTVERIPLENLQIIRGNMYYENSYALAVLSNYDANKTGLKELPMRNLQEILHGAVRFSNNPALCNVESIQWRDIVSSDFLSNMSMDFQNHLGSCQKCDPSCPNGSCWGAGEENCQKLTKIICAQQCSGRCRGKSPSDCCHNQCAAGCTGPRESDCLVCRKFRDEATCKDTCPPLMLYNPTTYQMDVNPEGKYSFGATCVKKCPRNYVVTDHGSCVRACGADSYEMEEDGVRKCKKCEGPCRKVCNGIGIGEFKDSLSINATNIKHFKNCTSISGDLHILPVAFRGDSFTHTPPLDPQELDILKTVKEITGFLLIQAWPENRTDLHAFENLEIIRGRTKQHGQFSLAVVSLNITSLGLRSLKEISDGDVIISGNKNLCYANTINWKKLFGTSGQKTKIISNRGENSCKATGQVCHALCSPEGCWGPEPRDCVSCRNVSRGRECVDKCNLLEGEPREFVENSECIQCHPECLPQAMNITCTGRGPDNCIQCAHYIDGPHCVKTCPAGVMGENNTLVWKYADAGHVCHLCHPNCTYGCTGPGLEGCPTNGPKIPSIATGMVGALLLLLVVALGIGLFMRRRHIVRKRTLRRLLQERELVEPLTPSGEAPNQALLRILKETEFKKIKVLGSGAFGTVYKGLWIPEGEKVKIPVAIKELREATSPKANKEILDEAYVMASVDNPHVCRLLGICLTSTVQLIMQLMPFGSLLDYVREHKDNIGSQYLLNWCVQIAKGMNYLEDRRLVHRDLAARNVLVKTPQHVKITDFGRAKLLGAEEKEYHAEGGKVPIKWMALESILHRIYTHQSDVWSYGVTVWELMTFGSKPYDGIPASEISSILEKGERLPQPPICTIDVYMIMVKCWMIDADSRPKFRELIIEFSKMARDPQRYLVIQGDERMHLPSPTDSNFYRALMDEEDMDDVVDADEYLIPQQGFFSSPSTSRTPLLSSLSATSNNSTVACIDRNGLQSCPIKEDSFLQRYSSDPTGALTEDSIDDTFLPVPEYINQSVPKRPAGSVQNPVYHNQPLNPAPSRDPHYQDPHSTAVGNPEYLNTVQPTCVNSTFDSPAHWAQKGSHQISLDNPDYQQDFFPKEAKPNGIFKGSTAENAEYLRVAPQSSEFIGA
- Assay procedure: Inhibition of EGFR L858R/T790M/C797S mutant (unknown origin)
One number for each entry, in nM.

Record excerpt, results attached:
Mol smiles	IC50 [nM]
COc1cc(N2CCC(N3CCN(C)CC3)CC2)c(C)cc1Nc1nccc(-n2cc(NC(=O)C3CC3)cn2)n1	37.6
COc1cc(N2CCC(N3CCN(C)CC3)CC2)c(C)cc1Nc1nccc(-n2cc(NS(=O)(=O)C3CC3)cn2)n1	18.8
C=CC(=O)Nc1cnn(-c2ccnc(Nc3cc(C)c(N4CCC(N5CCN(C)CC5)CC4)cc3OC)n2)c1	78.2

Would you mind listing IC50 for each of the following compounds?
1. COc1cc(N2CCC(N3CCN(C)CC3)CC2)c(C)cc1Nc1nccc(-n2cc(NC(=O)C=C(C)C)cn2)n1
2. COc1cc(N2CCC(N3CCN(C)CC3)CC2)c(C)cc1Nc1ncc(Br)c(-n2ccc(-c3ccccc3NS(=O)(=O)C3CC3)n2)n1

A:
1. 53.4
2. 93.8
